Species: Rattus norvegicus
Experiment: DrugMatrix - Regimen: Daily Repeat
Format: toxicity, organism-based, Sprague-Dawley
Parameters: regimen Daily Repeat, gender Male, age 6-8 weeks
Details: in vivo, po, 1500 mg/kg, 72 h, tissue Plasma, route oral GAVAGE, dose level High, time 3 day, vehicle .5 % CMC
Class Condition met: ALBUMIN at least 4 G/DL. Class Condition not met: ALBUMIN below 4 G/DL.

compound: COc1cc(/C=C/C(=O)O)ccc1O [FERULATE]
label.value: Condition met

compound: O=C(O)CCc1nc(-c2ccccc2)c(-c2ccccc2)o1
label.value: Condition met

compound: COc1ccc(Cl)cc1C(=O)NCCc1ccc(S(=O)(=O)NC(=O)NC2CCCCC2)cc1 [GLYBURIDE]
label.value: Condition not met

Inquiry: Record Cc1ccc(S(=O)(=O)NC(=O)NN2CCCCCC2)cc1 [TOLAZAMIDE] ; criterion: ALBUMIN no lower than 4 G/DL. Met?
Reply text: Condition met

###

Species on record: Rattus norvegicus
Assay: DrugMatrix - Regimen: Daily Repeat
Type: toxicity, organism-based, Sprague-Dawley
Parameters: regimen Daily Repeat, gender Male, age 6-8 weeks
Settings: in vivo, po, 1500 mg/kg, 72 h, tissue Plasma, route oral GAVAGE, dose level High, time 3 day, vehicle .5 % CMC
// values below are reported ALANINE AMINOTRANSFERASE
Express your answer as a number followed by its unit.

compound: COc1cc(/C=C/C(=O)O)ccc1O [FERULATE]
ALANINE AMINOTRANSFERASE: 67.67 u/L
//
compound: COc1ccc(Cl)cc1C(=O)NCCc1ccc(S(=O)(=O)NC(=O)NC2CCCCC2)cc1 [GLYBURIDE]
ALANINE AMINOTRANSFERASE: 32 u/L
//
compound: CC[C@H]1OC(=O)[C@H](C)[C@@H](O[C@H]2C[C@@](C)(OC)[C@@H](O)[C@H](C)O2)[C@H](C)[C@@H](O[C@@H]2O[C@H](C)C[C@H](N(C)C)[C@H]2O)[C@](C)(O)C[C@@H](C)C(=O)[C@H](C)[C@@H](O)[C@]1(C)O [ERYTHROMYCIN]
ALANINE AMINOTRANSFERASE: 65.33 u/L
//
compound: O=C(O)CCc1nc(-c2ccccc2)c(-c2ccccc2)o1 [OXAPROZIN]
ALANINE AMINOTRANSFERASE: 83 u/L

Now, please, on to the next compound.
Inquiry: // ALANINE AMINOTRANSFERASE lookup, key: Cc1ccc(S(=O)(=O)NC(=O)NN2CCCCCC2)cc1 [TOLAZAMIDE]
Reply text: 26.33 u/L

###

// values below are reported NUCLEATED RED BLOOD CELLS
Species on record: Rattus norvegicus
Test: DrugMatrix - Regimen: Daily Repeat
Type: toxicity, organism-based, Sprague-Dawley
Parameters: regimen Daily Repeat, gender Male, age 6-8 weeks
Conditions: in vivo, po, 0 mg/kg, 120 h, tissue Blood, route oral GAVAGE, dose level Control, time 5 day, […]

// worked examples, NUCLEATED RED BLOOD CELLS included
compound: CCOC(=O)C1=C(C)NC(C)=C(C(=O)OCC)C1c1ccccc1/C=C/C(=O)OC(C)(C)C [LACIDIPINE]
reported.value: 0 /100WBC

compound: COc1ccccc1OCCNCC(O)COc1cccc2[nH]c3ccccc3c12 (stereo not drawn) [CARVEDILOL]
reported.value: 0.17 /100WBC

compound: CO[C@H]1O[C@@H]2O[C@@]3(C)CC[C@H]4[C@H](C)CC[C@@H]([C@H]1C)[C@@]24OO3
reported.value: 0 /100WBC

Inquiry: // NUCLEATED RED BLOOD CELLS lookup, key: COC(=O)Nc1nc2ccc(C(=O)c3ccccc3)cc2[nH]1 [MEBENDAZOLE]
Reply text: 0.17 /100WBC

Inquiry: Try Oc1ncnc2[nH]ncc12 [ALLOPURINOL] next.
Reply text: 0.33 /100WBC

Inquiry: Try c1ccc2c(c1)Nc1ccccc1S2 [PHENOTHIAZINE] next.
Reply text: 0 /100WBC

Inquiry: Try O=C(O)COC(=O)Cc1ccccc1Nc1c(Cl)cccc1Cl [ACECLOFENAC] next.
Reply text: 0.17 /100WBC

Inquiry: Try CC(C)(c1ccc(O)cc1)c1ccc(O)cc1 [BISPHENOL A] next.
Reply text: 0.17 /100WBC

Inquiry: Try CCC(C)(C)C(=O)O[C@H]1C[C@@H](C)C=C2C=C[C@H](C)[C@H](CC[C@@H]3C[C@@H](O)CC(=O)O3)[C@H]21 [SIMVASTATIN] next.
Reply text: 0.17 /100WBC

Inquiry: Try Cc1cccc(C)c1NC(=O)C(C)N (stereo not drawn) [TOCAINIDE] next.
Reply text: 0 /100WBC

Inquiry: Try CS(=O)(=O)c1ccc(C2=C(c3ccccc3)C(=O)OC2)cc1 [ROFECOXIB] next.
Reply text: 0 /100WBC

Inquiry: Try CC#C[C@]1(O)CC[C@H]2[C@@H]3CCC4=CC(=O)CCC4=C3[C@@H](c3ccc(N(C)C)cc3)C[C@@]21C [MIFEPRISTONE] next.
Reply text: 0.17 /100WBC

Inquiry: Try O=C(Nc1ccc(Cl)c(Cl)c1)c1cc(Cl)cc(Cl)c1O [3,3',4',5-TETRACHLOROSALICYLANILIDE] next.
Reply text: 0 /100WBC
